Kindly state inhibition at 31.6 µM for each of the entries shown.
tested target: recombinant human cathepsin L (hCatL) (Homo sapiens (Human))
Sequence (P07711 114-333): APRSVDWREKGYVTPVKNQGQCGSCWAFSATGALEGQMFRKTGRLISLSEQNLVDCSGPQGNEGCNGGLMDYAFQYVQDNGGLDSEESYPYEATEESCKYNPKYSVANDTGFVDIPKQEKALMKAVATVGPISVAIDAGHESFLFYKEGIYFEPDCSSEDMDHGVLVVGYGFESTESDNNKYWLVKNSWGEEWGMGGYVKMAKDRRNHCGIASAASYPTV
assay: CatL functional enzyme assay (fluorogenic substrate Z-VVR-AMC)
Assay type: biochemical
experimental setup: pH 5.5
One number for each entry, in %.

{"columns": ["smiles notation", "inhibition at 31.6 µM (%)"],
 "data": [
  ["O=C(N[C@H](C(=O)N1C[C@H](Cl)[C@H]2OCC(=O)[C@H]21)C1CCCC1)c1ccc(-c2cncnc2)s1", 73],
  ["O=C(N[C@H](C(=O)N1C[C@H](Cl)[C@H]2OCC(=O)[C@H]21)C1CCCC1)c1ccc(-c2cncc(F)c2)s1", 42],
  ["O=C(N[C@H](C(=O)N1C[C@H](Cl)[C@H]2OCC(=O)[C@H]21)C1CCCC1)c1ccc(-c2cccnc2)s1", 45],
  ["O=C(N[C@H](C(=O)N1C[C@H](Cl)[C@H]2OCC(=O)[C@H]21)C1CCCC1)c1ccc(-c2cccnn2)s1", 72],
  ["O=C(N[C@H](C(=O)N1C[C@H](Cl)[C@H]2OCC(=O)[C@H]21)C1CCCC1)c1ccc(-c2ccncc2)s1", 50]
]}

Below is a list of compounds. For each, state its recorded inhibition at 31.6 µM.
1. O=C(N[C@H](C(=O)N1C[C@H](Cl)[C@H]2OCC(=O)[C@H]21)C1CCCC1)c1ccc(-c2cnccn2)s1
2. O=C(N[C@H](C(=O)N1C[C@H](Cl)[C@H]2OCC(=O)[C@H]21)C1CCCC1)c1ncc(-c2cccnn2)s1
3. O=C(N[C@H](C(=O)N1C[C@H](Cl)[C@H]2OCC(=O)[C@H]21)C1CCCC1)c1ccc(-c2ccnnc2)s1

// result
81
62
73
